B1: Azoarcus group I ribozyme (parent)
chain: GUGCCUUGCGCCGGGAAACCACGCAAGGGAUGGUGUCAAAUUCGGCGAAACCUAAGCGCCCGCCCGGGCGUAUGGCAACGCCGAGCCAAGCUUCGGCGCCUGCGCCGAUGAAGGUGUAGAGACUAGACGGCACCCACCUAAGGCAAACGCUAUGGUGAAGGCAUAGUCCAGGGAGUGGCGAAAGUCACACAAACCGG

# Variants of: B1
# measurement.description: reverse-splicing fitness (ratio to wild type); higher = more active; in vitro selection; Mg2+ level not given
Hi, to clarify the labels: rule met covers reverse-splicing fitness from 0.008 upward, rule not met covers anything below 0.008.

Textbook exercise: given the entry C82U A111G A120G A145G , state whether its reverse-splicing fitness is greater than or equal to 0.008.
rule met

Textbook exercise: given the entry C82G A111U A120G C150A C169A U176A , state whether its reverse-splicing fitness is greater than or equal to 0.008.
rule met

Textbook exercise: given the entry C82A A120U A145U C150G C169G , state whether its reverse-splicing fitness is greater than or equal to 0.008.
rule not met

Textbook exercise: given the entry C82A A111C A120U A145U C169A , state whether its reverse-splicing fitness is greater than or equal to 0.008.
rule not met

Textbook exercise: given the entry A111G A120G A145C C169A U176C , state whether its reverse-splicing fitness is greater than or equal to 0.008.
rule met

Textbook exercise: given the entry C82U A120U C150A , state whether its reverse-splicing fitness is greater than or equal to 0.008.
rule met

Textbook exercise: given the entry C82U A111U A145G C169G U176G , state whether its reverse-splicing fitness is greater than or equal to 0.008.
rule not met

Textbook exercise: given the entry C82A A111C A120U C150U , state whether its reverse-splicing fitness is greater than or equal to 0.008.
rule met

Textbook exercise: given the entry A111G A120G A145G C150G C169A U176G , state whether its reverse-splicing fitness is greater than or equal to 0.008.
rule not met

Textbook exercise: given the entry C82A A111G A145G C150A C169A , state whether its reverse-splicing fitness is greater than or equal to 0.008.
rule met

Textbook exercise: given the entry C82G A111U A145C C150U C169G , state whether its reverse-splicing fitness is greater than or equal to 0.008.
rule not met

Textbook exercise: given the entry C82A A111U A120C A145C C150G C169U U176A , state whether its reverse-splicing fitness is greater than or equal to 0.008.
rule not met

Textbook exercise: given the entry C82U A111G A120C C150A C169A , state whether its reverse-splicing fitness is greater than or equal to 0.008.
rule met

Textbook exercise: given the entry C82A A111U C169A U176G , state whether its reverse-splicing fitness is greater than or equal to 0.008.
rule not met

Textbook exercise: given the entry C82U A111G A145G C150G , state whether its reverse-splicing fitness is greater than or equal to 0.008.
rule met

Textbook exercise: given the entry C82U A111C C150G C169U U176G , state whether its reverse-splicing fitness is greater than or equal to 0.008.
rule not met

Textbook exercise: given the entry A111U A120G C150U U176C , state whether its reverse-splicing fitness is greater than or equal to 0.008.
rule met

Textbook exercise: given the entry C82U A111U A120C A145C C150A C169A U176G , state whether its reverse-splicing fitness is greater than or equal to 0.008.
rule not met

Textbook exercise: given the entry A111G A120G A145C C150U U176A , state whether its reverse-splicing fitness is greater than or equal to 0.008.
rule met

Textbook exercise: given the entry C82G A111U A120C A145G C169G , state whether its reverse-splicing fitness is greater than or equal to 0.008.
rule met

Textbook exercise: given the entry C82A A111C A120C A145U C169A U176C , state whether its reverse-splicing fitness is greater than or equal to 0.008.
rule met

Textbook exercise: given the entry C82A A111G A120C C150U C169G U176G , state whether its reverse-splicing fitness is greater than or equal to 0.008.
rule not met

Textbook exercise: given the entry A111U A145U C150A C169A U176G , state whether its reverse-splicing fitness is greater than or equal to 0.008.
rule not met

Textbook exercise: given the entry C82U A111G A120U C150U U176G , state whether its reverse-splicing fitness is greater than or equal to 0.008.
rule not met

Textbook exercise: given the entry C82G A111U A120U A145U C150U U176A , state whether its reverse-splicing fitness is greater than or equal to 0.008.
rule met

Textbook exercise: given the entry A111G A120U C150A C169U , state whether its reverse-splicing fitness is greater than or equal to 0.008.
rule met

Textbook exercise: given the entry C82G A120C A145C C169U U176A , state whether its reverse-splicing fitness is greater than or equal to 0.008.
rule met

Textbook exercise: given the entry C82A A111U A145C C150G C169G U176A , state whether its reverse-splicing fitness is greater than or equal to 0.008.
rule met

Textbook exercise: given the entry C82A A111C A120C C150G C169U U176G , state whether its reverse-splicing fitness is greater than or equal to 0.008.
rule not met

Textbook exercise: given the entry A111G A145U C150G U176C , state whether its reverse-splicing fitness is greater than or equal to 0.008.
rule met

Textbook exercise: given the entry C82G A111U A120C C150A , state whether its reverse-splicing fitness is greater than or equal to 0.008.
rule met

Textbook exercise: given the entry C82G A120G C169G U176C , state whether its reverse-splicing fitness is greater than or equal to 0.008.
rule met

Textbook exercise: given the entry C82U A145G C150G C169U U176C , state whether its reverse-splicing fitness is greater than or equal to 0.008.
rule met

Textbook exercise: given the entry A111C A120U A145U C150A C169A , state whether its reverse-splicing fitness is greater than or equal to 0.008.
rule not met

Textbook exercise: given the entry C82U A111U A120U C150U C169U U176A , state whether its reverse-splicing fitness is greater than or equal to 0.008.
rule not met

Textbook exercise: given the entry C82A A120U A145C C150A C169A U176A , state whether its reverse-splicing fitness is greater than or equal to 0.008.
rule not met

Textbook exercise: given the entry A111C A120C C150U C169U U176A , state whether its reverse-splicing fitness is greater than or equal to 0.008.
rule met

Textbook exercise: given the entry C82U A111G A120U A145C C150U C169A U176A , state whether its reverse-splicing fitness is greater than or equal to 0.008.
rule not met

Textbook exercise: given the entry C82U A120G A145U C150A U176C , state whether its reverse-splicing fitness is greater than or equal to 0.008.
rule met

Textbook exercise: given the entry C82A A111U C150U C169G U176A , state whether its reverse-splicing fitness is greater than or equal to 0.008.
rule met

Textbook exercise: given the entry A120G A145C C150G C169A U176C , state whether its reverse-splicing fitness is greater than or equal to 0.008.
rule met

Textbook exercise: given the entry A111U A145C C150G U176G , state whether its reverse-splicing fitness is greater than or equal to 0.008.
rule met

Textbook exercise: given the entry C82U A111U A120G A145G U176A , state whether its reverse-splicing fitness is greater than or equal to 0.008.
rule met

Textbook exercise: given the entry C82G A111G A120G A145G C150G U176A , state whether its reverse-splicing fitness is greater than or equal to 0.008.
rule not met

Textbook exercise: given the entry A111U A120U A145U C150U C169U U176A , state whether its reverse-splicing fitness is greater than or equal to 0.008.
rule not met

Textbook exercise: given the entry C82U A111U A120U A145C C150U U176G , state whether its reverse-splicing fitness is greater than or equal to 0.008.
rule not met

Textbook exercise: given the entry C82U A111U A120U A145G C150A C169G , state whether its reverse-splicing fitness is greater than or equal to 0.008.
rule not met

Textbook exercise: given the entry C82U A111G A120C A145U C169A U176G , state whether its reverse-splicing fitness is greater than or equal to 0.008.
rule not met

Textbook exercise: given the entry C82G A120U A145G C150U U176G , state whether its reverse-splicing fitness is greater than or equal to 0.008.
rule met

Textbook exercise: given the entry C82A A111C A120G A145G C150G C169U U176C , state whether its reverse-splicing fitness is greater than or equal to 0.008.
rule met

Textbook exercise: given the entry C82G A111U A120C C150U C169U U176C , state whether its reverse-splicing fitness is greater than or equal to 0.008.
rule met

Textbook exercise: given the entry C82G A111C A120C C169U U176G , state whether its reverse-splicing fitness is greater than or equal to 0.008.
rule not met

Textbook exercise: given the entry C82A A111C A120G A145G C169A U176A , state whether its reverse-splicing fitness is greater than or equal to 0.008.
rule met

Textbook exercise: given the entry C82A A111U A145U , state whether its reverse-splicing fitness is greater than or equal to 0.008.
rule met

Textbook exercise: given the entry C82A A145C C150A C169U U176G , state whether its reverse-splicing fitness is greater than or equal to 0.008.
rule not met

Textbook exercise: given the entry A111C A120C A145U U176G , state whether its reverse-splicing fitness is greater than or equal to 0.008.
rule met

Textbook exercise: given the entry C82G A120G A145C C150A C169U U176G , state whether its reverse-splicing fitness is greater than or equal to 0.008.
rule not met

Textbook exercise: given the entry A111G A145C C150U C169G U176A , state whether its reverse-splicing fitness is greater than or equal to 0.008.
rule met

Textbook exercise: given the entry C82G A120U A145C C169U U176A , state whether its reverse-splicing fitness is greater than or equal to 0.008.
rule not met

Textbook exercise: given the entry C82A A111C A120U A145U C169A U176C , state whether its reverse-splicing fitness is greater than or equal to 0.008.
rule not met

Textbook exercise: given the entry A120C A145U C150A C169G U176C , state whether its reverse-splicing fitness is greater than or equal to 0.008.
rule met

Textbook exercise: given the entry A111G A120G C150A C169G U176A , state whether its reverse-splicing fitness is greater than or equal to 0.008.
rule met

Textbook exercise: given the entry C82A A111G A120C C150U C169A U176A , state whether its reverse-splicing fitness is greater than or equal to 0.008.
rule met

Textbook exercise: given the entry C82U A111U A120C A145C C150U U176G , state whether its reverse-splicing fitness is greater than or equal to 0.008.
rule not met

Textbook exercise: given the entry C82G A145G C150A C169A U176A , state whether its reverse-splicing fitness is greater than or equal to 0.008.
rule met

Textbook exercise: given the entry A111U A120G A145G C169G U176G , state whether its reverse-splicing fitness is greater than or equal to 0.008.
rule not met

Textbook exercise: given the entry C82U A120G A145C C150U , state whether its reverse-splicing fitness is greater than or equal to 0.008.
rule met

Textbook exercise: given the entry A111C A120C A145C C150A C169G , state whether its reverse-splicing fitness is greater than or equal to 0.008.
rule not met

Textbook exercise: given the entry A111U A120U A145C C169U U176A , state whether its reverse-splicing fitness is greater than or equal to 0.008.
rule met

Textbook exercise: given the entry C150U C169U U176C , state whether its reverse-splicing fitness is greater than or equal to 0.008.
rule met

Textbook exercise: given the entry C82A A111G C150G C169U U176A , state whether its reverse-splicing fitness is greater than or equal to 0.008.
rule not met

Textbook exercise: given the entry C82U A111C A120G A145G C150G U176A , state whether its reverse-splicing fitness is greater than or equal to 0.008.
rule not met

Textbook exercise: given the entry C82A A111G A120C A145C C150G C169A U176C , state whether its reverse-splicing fitness is greater than or equal to 0.008.
rule met

Textbook exercise: given the entry C82A A111G U176G , state whether its reverse-splicing fitness is greater than or equal to 0.008.
rule met

Textbook exercise: given the entry C82G A111U A120C C150G C169A U176G , state whether its reverse-splicing fitness is greater than or equal to 0.008.
rule met

Textbook exercise: given the entry C82U A111U A145G C150A C169G U176G , state whether its reverse-splicing fitness is greater than or equal to 0.008.
rule not met

Textbook exercise: given the entry A111U A120U A145G C150U C169U U176G , state whether its reverse-splicing fitness is greater than or equal to 0.008.
rule not met
